- experimentalDetails: gradient 5% acetonitrile 3 min, to 50% in 2 min, to 85% in 15 min, held 3 min, 100 µL/min
- condition: column: Zorbax Extend-C18 2.1 x 50 mm; eluents: water / acetonitrile, 0.1% formic acid
measuredEndpoint: RP-LC retention time (s)

The following compounds have reported results that may help.
>>> df
                                   compound  number
0  CCCC(=O)Nc1ccc(S(=O)(=O)NCCn2ncccc2=O)cc1     612
1  CC(C)Cn1c(=O)c(-c2ccc(C(=O)NCc3ccncc3)cc2)nc2ccccc21     681
2     CCc1sc(NC(=O)CCSc2ccccc2)nc1-c1ccccc1    1210
3           O=C(NCCOc1ccc2c(c1)OCO2)C1CCCC1     741
4  CCOc1ccccc1CNC(=O)C1CCCN(c2ncnc3c2oc2ccccc23)C1 (stereo not given)     813
5  COc1ccc(NC(=O)CSc2nc(N3CCCCC3)nc3ccccc23)cc1Cl     756
6  CCn1nc(C)n2cc(S(=O)(=O)NCc3ccc(F)cc3)cc2c1=O     836
7  O=C(Cn1cc(-c2nc(-c3ccc(Cl)cc3)no2)ccc1=O)NC1CCCC1     928

[1] COC(=O)C1=C(C)NC(C)=C(C(=O)OCCSc2ccccc2)C1C (stereo not given)
[2] COc1ccccc1NC(=O)C1=C(C)NC(=O)NC1c1cccs1 (stereo not given)
Q: Problem: Given the entries 1 and 2 , determine which has the lower reported RP-LC retention time. When you have decided, please share the label of that item.
Result: 2

---

- experimentalDetails: gradient 5% acetonitrile 3 min, to 50% in 2 min, to 85% in 15 min, held 3 min, 100 µL/min
- condition: column: Zorbax Extend-C18 2.1 x 50 mm; eluents: water / acetonitrile, 0.1% formic acid
measuredEndpoint: RP-LC retention time (s)

The following compounds have reported results that may help.
>>> df
                                   compound  number
0  Cc1ccccc1CNC(=O)C1(C)CCCN(C(=O)NC2CCCCC2)C1 (centres undefined)     904
1            CCCNC(=O)c1ccc2ncn(C)c(=O)c2c1     596
2  Cc1c(C(=O)N2CCOCC2)cnn1-c1cc(-c2nc(C(C)(C)C)no2)ccn1     931
3  COc1ccc(CNC(=O)Cn2nc3cc(C)nc(-c4ccccc4)n3c2=O)cc1     752
4    O=C(NCC(=O)N1CCc2ccccc21)Nc1cccc(Br)c1     894
5           O=C(C1CC1)N1CCC(COCc2ccccc2)CC1     831

[P] Cc1ccc(CNS(=O)(=O)c2cc(-c3nc(C(C)(C)C)cs3)cs2)cc1
[Q] Nc1nc(N2CCN(C3CCCCC3)CC2)ncc1C(=O)NCc1ccccc1F
[R] CCNS(=O)(=O)c1cccc(-c2nnc(-c3ccc(C)cc3)o2)c1
Q: Arrange the 3 entries by RP-LC retention time so the values rise. Submit the labels in the order that the ranking request calls for.
Result: Q, R, P
(Q: 629 s, R: 922 s, P: 1320 s)

---

- experimentalDetails: gradient 5% acetonitrile 3 min, to 50% in 2 min, to 85% in 15 min, held 3 min, 100 µL/min
- condition: column: Zorbax Extend-C18 2.1 x 50 mm; eluents: water / acetonitrile, 0.1% formic acid
measuredEndpoint: RP-LC retention time (s)

                                   compound      measuredendpoint  displayunit  number
0  CN(C)c1ccc(CNC(=O)c2ccc3c(c2)N(C)C(=O)C2CCCCN32)cc1 (stereo not given)  RP-LC retention time            s     628
1  Cc1ccc(N(C)S(=O)(=O)c2cc3n(c2)CCCNC3=O)cc1  RP-LC retention time            s     663
2  CCCNC(=O)C1CCCN(c2ccc(SCC(=O)Nc3cccc(CC)c3)nn2)C1 (stereo not given)  RP-LC retention time            s     733
3  O=C(Nc1ccc(F)c(Cl)c1)C1CCc2sc(C(=O)N3CCOCC3)cc2C1 (stereo not given)  RP-LC retention time            s     807
4  Cc1ccc2ncn(C3CCN(C(=O)Nc4ccc(F)cc4)CC3)c(=O)c2c1  RP-LC retention time            s     765
